Data origin, for the record: ChEMBL document CHEMBL1201862

Test system: NCI-H226
Assay: NCI tumour cell line growth inhibition, 48 h
Active and inactive are the calls of the source. Cut-off read from the data, not from the text of the source: active = GI50 up to about 1.1 µM and inactive = higher.
Outcome codes: active, inactive

Compound | Group label
CC(C)(C)c1ccc(OCCOCCOc2ccc(C(C)(C)C)cc2S(=O)(=O)Nc2ccc([N+](=O)[O-])cc2)c(S(=O)(=O)Nc2ccc([N+](=O)[O-])cc2)c1 | inactive
Cc1cccc(/N=N/c2ccc(/N=N/c3c(O)ccc4ccccc34)cc2C)c1 | inactive
O=C(Nc1ccn(C2CCC(CO)O2)c(=O)n1)c1ccccc1 (configuration not stated) | inactive
CCC(=O)NC(OCC1(CC)COC1)(C(F)(F)F)C(F)(F)F | inactive
CC1OC(CC2C=CCc3c(O)c4c(c(O)c32)C(=O)c2ccccc2C4=O)CC(NC(=O)C(F)(F)F)C1O (configuration not stated) | inactive
CC(=O)Oc1c2ccsc2c(OC(C)=O)c2ccsc12 | inactive
Cc1ccc([S+]([O-])/C=C(\NC(=O)OCc2ccccc2)C(F)(F)F)cc1 (configuration not stated) | inactive
COc1cc(C(=O)N[C@H]2CCc3cc(OC)c(OC)c(OC)c3-c3ccc(SC)c(=O)cc32)cc(OC)c1OC | active
O=C1/C=C(/c2ccc(O)cc2)[C@@H](O)Cc2ccc(O)cc2O1 | active
CN(C)c1ccc(/C=N/c2ccc(Oc3ccc(Cl)cc3)c(Cl)c2)cc1 | inactive
CO[C@H]1O[C@@H]2CO[C@@H](c3ccccc3)O[C@H]2C[C@]12CCC/C=C\CO2 | inactive
CC(C)(C)OC(=O)CN1CCNCCNCC1 | inactive
CCOC(=O)C1(C/C=C\CBr)CCCC1=O (configuration not stated) | inactive
CCN(CC)CCNCc1cc(Cl)cc2c1OCOC2 | inactive
CC(=O)OCSc1ncnc2c1ncn2CN1CCOCC1 | inactive
C[C@H]1C=C2C(=O)O[C@H]3CC[C@@H](C1)[C@@]23O | inactive
CC1(C)C2CC(c3ccncc3)ON2C(C)(C)N1O (configuration not stated) | inactive
O=C1c2cccc3cccc(c23)C(=O)N1CCCNCCCNCCCCNCCCNCCCN1C(=O)c2cccc3cccc(c23)C1=O | inactive
O=C1Nc2ccccc2Nc2ccncc21 | inactive
Nc1cc(CO)cc(Nc2c3ccccc3nc3ccccc23)c1 | inactive
CCc1cccc(C(C)C)c1NC(=O)CCl | inactive
Oc1nc(-c2ccccc2)cc(-c2ccccc2O)n1 | inactive
